Format: physicochemical
Conditions: pH 7.4
No end group written: not given here.
readout-label: Log D ± SD, [^99mTc][Tc(Ⅴ)N]^2+ Core
Answer using only a numeral; do not append any unit.

Sample records with Log D ± SD, [^99mTc][Tc(Ⅴ)N]^2+ Core:
| substance | Log D ± SD, [^99mTc][Tc(Ⅴ)N]^2+ Core |
| --- | --- |
| [^99mTc]TcN-CN8UBI 29-41: ^99mTc complex of ligand CN8UBI 29-41 with the [^99mTc][Tc(V)N]^2+ core (TGRAKRRMQYNRR; also: CN8 chelator, position not given here, 99mTc complex with [99mTc][Tc(V)N]2+ core; UniProt P62861 103-115, looked up, fragment) | −2.55 |
| [^99mTc]TcN-CN5UBI 29-41: ^99mTc complex of ligand CN5UBI 29-41 with the [^99mTc][Tc(V)N]^2+ core (TGRAKRRMQYNRR; also: CN5 chelator, position not given here, 99mTc complex with [99mTc][Tc(V)N]2+ core; UniProt P62861 103-115, looked up, fragment) | −2.71 |
| [^99mTc]TcN-CN9UBI 29-41: ^99mTc complex of ligand CN9UBI 29-41 with the [^99mTc][Tc(V)N]^2+ core (TGRAKRRMQYNRR; also: CN9 chelator, position not given here, 99mTc complex with [99mTc][Tc(V)N]2+ core; UniProt P62861 103-115, looked up, fragment) | −2.41 |
| [^99mTc]TcN-CN6UBI 29-41: ^99mTc complex of ligand CN6UBI 29-41 with the [^99mTc][Tc(V)N]^2+ core (TGRAKRRMQYNRR; also: CN6 chelator, position not given here, 99mTc complex with [99mTc][Tc(V)N]2+ core; UniProt P62861 103-115, looked up, fragment) | −2.65 |

Query: I am curious: what Log D ± SD, [^99mTc][Tc(Ⅴ)N]^2+ Core value has been reported for [^99mTc]TcN-CN7UBI 29-41: ^99mTc complex of ligand CN7UBI 29-41 with the [^99mTc][Tc(V)N]^2+ core (TGRAKRRMQYNRR; also: CN7 chelator, position not given here, 99mTc complex with [99mTc][Tc(V)N]2+ core; UniProt P62861 103-115, looked up, fragment) ?
Response: −2.58

---

Recorded Log D ± SD, [^99mTc][Tc(Ⅰ)]^+ Core values for a group of substances are listed next.
Assay type: physicochemical
Details: pH 7.4
No end group written: not given here.
Answer using only a numeral; do not append any unit.

Sample records with Log D ± SD, [^99mTc][Tc(Ⅰ)]^+ Core:
| substance | Log D ± SD, [^99mTc][Tc(Ⅰ)]^+ Core |
| --- | --- |
| [^99mTc]Tc-CN5UBI 29-41: ^99mTc complex of ligand CN5UBI 29-41 with the [^99mTc]Tc(I)^+ core (TGRAKRRMQYNRR; also: CN5 chelator, position not given here, 99mTc(I) complex; UniProt P62861 103-115, looked up, fragment) | −2.66 |
| [^99mTc]Tc-CN8UBI 29-41: ^99mTc complex of ligand CN8UBI 29-41 with the [^99mTc]Tc(I)^+ core (TGRAKRRMQYNRR; also: CN8 chelator, position not given here, 99mTc complex with [99mTc]Tc(I)+ core; UniProt P62861 103-115, looked up, fragment) | −2.54 |
| [^99mTc]Tc-CN9UBI 29-41: ^99mTc complex of ligand CN9UBI 29-41 with the [^99mTc]Tc(I)^+ core (TGRAKRRMQYNRR; also: CN9 chelator, position not given here, 99mTc complex with [99mTc]Tc(I)+ core; UniProt P62861 103-115, looked up, fragment) | −2.52 |

Query: I am curious: what Log D ± SD, [^99mTc][Tc(Ⅰ)]^+ Core value has been reported for [^99mTc]Tc-CN6UBI 29-41: ^99mTc complex of ligand CN6UBI 29-41 with the [^99mTc]Tc(I)^+ core (TGRAKRRMQYNRR; also: CN6 chelator, position not given here, 99mTc(I) complex; UniProt P62861 103-115, looked up, fragment) ?
Response: −2.62

Query: Param item: [^99mTc]Tc-CN7UBI 29-41: ^99mTc complex of ligand CN7UBI 29-41 with the [^99mTc]Tc(I)^+ core (TGRAKRRMQYNRR; also: CN7 chelator, position not given here, 99mTc(I) complex; UniProt P62861 103-115, looked up, fragment)
Response: −2.57

Attribution: paper PMC10816394
